system: A375 cells; assay: A375 cell proliferation assay (1), resazurin, 96-well; format: cell-based; conditions: Homo sapiens, A-375, inhibition of cell proliferation
Give IC50 for every item shown.

// solved cases for IC50 follow
>  <compound>
COC(=O)Nc1cc(-c2cc(-c3cc(NC(=O)NCCN4CCC4)c(F)cc3C)cc(OCCO)n2)ccn1 [Example 125]

>  <IC50>
1000 to 10000 nM

$$$$
>  <compound>
CNC(=O)c1cc(-c2cnnc(-c3cc(NC(=O)N4CC[C@@H](OC)C4)ccc3C)c2)ccn1 [Example 181]

>  <IC50>
1000 to 10000 nM

$$$$
>  <compound>
COC(C)(C)CCNC(=O)Nc1ccc(C)c(-c2cc(-c3cnn(C)c3)nc(N3CCOCC3)c2)c1 [Example 38]

>  <IC50>
1000 to 10000 nM

$$$$
>  <compound>
CC(=O)Nc1cc(-c2cc(-c3cc(NC(=O)NC4CCCCC4)c(F)cc3C)cc(OCCO)n2)ccn1 [Example 53]

>  <IC50>
≤ 100 nM

$$$$
>  <compound>
CC(=O)Nc1cc(-c2cc(-c3cc(NC(=O)N[C@H]4C[C@](C)(F)C4)ccc3C)cc(OCCO)n2)ccn1 [Example 49]

>  <IC50>
1000 to 10000 nM

$$$$

Kindly give each listed record's IC50.
1. CNC(=O)c1cc(-c2cnnc(-c3cc(NC(=O)NCCC(C)(C)OC)c(F)cc3C)c2)ccn1 [Example 123]
2. Cc1cc(F)c(NC(=O)NCCC2(C(F)(F)F)CC2)cc1-c1cc(OCCO)nc(C2CCOCC2)c1 [Example 24]
3. Cc1cc(F)c(NC(=O)NC2CC(C)(C)C2)cc1-c1cc(OCCO)nc(-c2ccnc(NC(=O)C3CC3)c2)n1 [Example 167]
4. COC(=O)Nc1cc(-c2cccc(-c3cc(NC(=O)NCCC4(C)CC4)cnc3C)c2)ncn1 [Example 170]
5. COC(C)(C)CCNC(=O)Nc1cc(-c2ccnc(-c3ccnc(NC(=O)C4CC4)c3)c2)c(F)cc1F [Example 162]
6. Cc1ccc(NC(=O)NCCC(C)(C)C)cc1-c1ccnc(N2CCOCC2)c1 [Example 18]
7. COC(=O)Nc1cc(-c2nccc(-c3cc(NC(=O)N4CCC(C(F)(F)F)C4)ccc3C)n2)ccn1 (stereo not drawn) [Example 193]

Result:
1. 1000 to 10000 nM
2. 100 to 500 nM
3. ≤ 100 nM
4. 500 to 1000 nM
5. 1000 to 10000 nM
6. 1000 to 10000 nM
7. 1000 to 10000 nM

###

biological target: C-Raf kinase (Homo sapiens, UniProt P04049, Y340D/Y341D); construct: Y340D,; GST (N); purchased Sigma; assay: Biochemical assay for C-Raf.1 (coupled pyruvate kinase/lactate dehydrogenase); conditions: read-out: CRAF.1 IC50
Sequence (P04049 307-648 Y340D/Y341D): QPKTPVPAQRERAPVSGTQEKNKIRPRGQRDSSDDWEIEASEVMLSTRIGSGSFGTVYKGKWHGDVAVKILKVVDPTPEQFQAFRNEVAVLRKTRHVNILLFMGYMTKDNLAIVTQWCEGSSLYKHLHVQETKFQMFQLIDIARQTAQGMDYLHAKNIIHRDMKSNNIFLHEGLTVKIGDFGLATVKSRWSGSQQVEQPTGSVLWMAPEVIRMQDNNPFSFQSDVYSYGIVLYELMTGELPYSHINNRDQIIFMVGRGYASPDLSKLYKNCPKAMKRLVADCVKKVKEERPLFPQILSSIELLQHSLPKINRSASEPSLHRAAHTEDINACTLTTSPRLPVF
measure: IC50

>  <compound>
Cc1ncc(NC(=O)NCCC(C)(C)F)cc1-c1ccnc(-c2ccnc(NC(=O)C3CC3)c2)c1

>  <IC50>
≤ 100 nM

$$$$

Kindly give each listed record's IC50.
1. COC(=O)Nc1cc(-c2cnnc(-c3cc(NC(=O)N4CCC(C(C)(C)C)C4)ccc3C)c2)ccn1 (stereo not shown)
2. Cc1ccc(NC(=O)N2CCC3(CC3)C2)cc1-c1cncc(-c2cc(NC(=O)C3CC3)ncn2)c1
3. Cc1ccc(NC(=O)N2CC[C@@H](C)C2)cc1-c1cncc(-c2cc(NC(=O)C3CC3)ncn2)c1
4. Cc1ccc(NC(=O)N2CC[C@H](C(F)(F)F)C2)cc1-c1cccc(-c2cc(NC(=O)C3CC3)ncn2)c1
5. Cc1cc(F)c(NC(=O)NCCC(C)(C)F)cc1-c1cccc(-c2ccnc3[nH]ncc23)c1
6. COC(=O)Nc1cc(-c2nccc(-c3cc(NC(=O)NCCC(C)(C)F)c(F)cc3C)n2)ccn1

Result:
["≤ 100 nM", "≤ 100 nM", "≤ 100 nM", "≤ 100 nM", "≤ 100 nM", "≤ 100 nM"]

###

Target: B-Raf (V600E) kinase (Homo sapiens, UniProt P15056, V600E)
Construct: B-Raf (V600E) residues 416-766 with a; GST (N); purchased SignalChem
Sequence (P15056 416-766 V600E): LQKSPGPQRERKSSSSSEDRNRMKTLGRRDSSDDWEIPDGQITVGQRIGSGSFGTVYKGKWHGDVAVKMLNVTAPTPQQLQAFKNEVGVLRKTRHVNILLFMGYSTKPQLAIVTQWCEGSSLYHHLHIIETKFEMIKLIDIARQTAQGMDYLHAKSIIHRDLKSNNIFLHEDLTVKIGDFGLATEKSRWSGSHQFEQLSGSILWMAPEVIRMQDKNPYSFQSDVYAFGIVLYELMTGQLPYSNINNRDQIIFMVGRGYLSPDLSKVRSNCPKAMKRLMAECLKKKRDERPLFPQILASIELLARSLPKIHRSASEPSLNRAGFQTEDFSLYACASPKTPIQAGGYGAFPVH
Assay: Biochemical assay for B-Raf (V600E).1 (coupled pyruvate kinase/lactate dehydrogenase)
Conditions: read-out: BRAF V600E.1 IC50
Protocol: Biochemical Assay for B-Raf (V600E).1 Activity of B-Raf (V600E) (SEQ. ID NO: 4) kinase was determined spectroscopically using a coupled pyruvate kinase/lactate dehydrogenase assay that continuously monitors the ATP hydrolysis-dependent oxidation of NADH (e.g., Schindler et al., Science, 2000, 289, 1938-1942). […] Inhibition of B-Raf (V600E) was measured by adding serial diluted test compound (final assay concentration of 1% DMSO). […] The reaction rate was calculated using the 3 to 4 h time frame. […]
pIC50: −log10 of the molar value.
Give pIC50 for every item shown.

>  <compound>
Cc1ncc(NC(=O)NCCC(C)(C)C)cc1-c1cc(N2CCOCC2)c(=O)n(C)c1 [Example 8]

>  <pIC50>
≥ 7.00

$$$$
>  <compound>
COC(=O)Nc1cc(-c2nccc(-c3cc(NC(=O)NCCC(C)(C)OC)c(F)cc3C)n2)ccn1 [Example 129]

>  <pIC50>
≥ 7.00

$$$$
>  <compound>
Cc1cc(F)c(NC(=O)NCCC(C)(C)F)cc1-c1cc(OCCO)nc(-c2ccnc3[nH]ncc23)c1 [Example 94]

>  <pIC50>
≥ 7.00

$$$$

Continue with the compound presented below.
Looking up COC(C)(C)CCNC(=O)Nc1cc(-c2cc(-c3ccnc(NC(=O)C4CC4)c3)cnn2)c(C)cc1F [Example 142] , I found its pIC50 recorded as ≥ 7.00

###

molecular target: B-Raf kinase (Homo sapiens); construct: GST (N); purchased Sigma; assay: Biochemical assay for B-Raf.1 (coupled pyruvate kinase/lactate dehydrogenase); conditions: read-out: BRAF.1 IC50
Sequence (P15056 416-766): as the sequence (P15056 416-766 V600E) above, with E185V counted along it
pIC50: −log10 of the molar value.
Give pIC50 for every item shown.

// solved cases for pIC50 follow
>  <chemicalSmiles>
Cc1ccc(NC(=O)NCCC(C)(C)C)cc1-c1cc(-c2cnn(C)c2)nc(N2CCOCC2)c1

>  <measure>
pIC50

>  <value>
6.30 to 7.00

$$$$
>  <chemicalSmiles>
COC(=O)Nc1cc(-c2cc(-c3cc(NC(=O)NCCC4COC4)c(F)cc3C)cc(OCCO)n2)ccn1

>  <measure>
pIC50

>  <value>
≥ 7.00

$$$$
>  <chemicalSmiles>
COC1(CCNC(=O)Nc2cnc(C)c(-c3cccc(-c4cc(NC(=O)C5CC5)ncn4)c3)c2)CC1

>  <measure>
pIC50

>  <value>
≥ 7.00

$$$$
>  <chemicalSmiles>
COC(=O)Nc1cc(-c2cccc(-c3cc(NC(=O)NCCC4(OC)CC4)cnc3C)c2)ncn1

>  <measure>
pIC50

>  <value>
6.30 to 7.00

$$$$
>  <chemicalSmiles>
CC(=O)Nc1cc(-c2cc(-c3cc(NC(=O)Nc4ccc(C(F)(F)F)cc4)cnc3C)ccn2)ccn1

>  <measure>
pIC50

>  <value>
≥ 7.00

$$$$
>  <chemicalSmiles>
COC1(CCNC(=O)Nc2cc(-c3cccc(-c4cc(NC(=O)C5CC5)ncn4)c3)c(C)cc2F)CC1

>  <measure>
pIC50

>  <value>
≥ 7.00

$$$$

Looking up CNC(=O)c1cc(-c2cc(-c3cc(NC(=O)Nc4ccnc(C(C)(C)C#N)c4)ccc3C)ccn2)ccn1 , I found its pIC50 recorded as ≥ 7.00

###

biological target: C-Raf kinase (Homo sapiens, UniProt P04049, Y340D/Y341D); construct: Y340D,; GST (N); purchased Sigma; assay: Biochemical assay for C-Raf.1 (coupled pyruvate kinase/lactate dehydrogenase); conditions: read-out: CRAF.1 IC50
Give IC50 for every item shown.

// solved cases for IC50 follow
>  <chemicalSmiles>
Cc1cc(F)c(NC(=O)NCCC2(C)CC2)cc1-c1ccnc(-c2ccnc3c2CC(=O)N3)c1

>  <IC50>
≤ 100 nM

$$$$
>  <chemicalSmiles>
Cc1cc(F)c(NC(=O)NC2CCC(F)(F)CC2)cc1-c1cc(-c2cnn(C)c2)nc(N2CCOCC2)c1

>  <IC50>
≤ 100 nM

$$$$
>  <chemicalSmiles>
CNC(=O)c1cc(-c2cc(-c3cc(NC(=O)NC4CCCCC4)c(F)cc3C)cc(OCCO)n2)ccn1

>  <IC50>
≤ 100 nM

$$$$

Query Cc1ncc(NC(=O)NCCN2CCC2)cc1-c1cc(OCCO)nc(-c2ccnc(NC(=O)C3CC3)c2)c1 on C-Raf kinase (Homo sapiens, UniProt P04049, Y340D/Y341D); IC50 returned: > 1000 nM

###

target: C-Raf kinase (Homo sapiens, UniProt P04049, Y340D/Y341D); construct: Y340D,; GST (N); purchased Sigma; assay: Biochemical assay for C-Raf.2 (coupled pyruvate kinase/lactate dehydrogenase); conditions: read-out: CRAF.2 IC50
measure: IC50

// solved cases for IC50 follow
>  <chemicalSmiles>
CNC(=O)c1cc(-c2cc(-c3cc(NC(=O)N4CC[C@H](C(F)(F)F)C4)ccc3C)ccn2)ccn1

>  <IC50>
≤ 0.1 µM

$$$$
>  <chemicalSmiles>
CNC(=O)c1cc(-c2cncc(-c3cc(NC(=O)N4CC[C@H](C(C)C)C4)ccc3C)c2)ncn1

>  <IC50>
0.1 to 0.5 µM

$$$$
>  <chemicalSmiles>
CNC(=O)c1cc(-c2cncc(-c3cc(NC(=O)N4CC[C@H](C(F)(F)F)C4)ccc3C)c2)ncn1

>  <IC50>
0.1 to 0.5 µM

$$$$

Kindly give each listed record's IC50.
1. CNC(=O)c1cc(-c2cncc(-c3cc(NC(=O)N4CC[C@H](C(C)C)C4)ccc3C)c2)ccn1
2. Cc1ccc(NC(=O)N2CC[C@H](C)C2)cc1-c1cncc(-c2cc(NC(=O)C3CC3)ncn2)c1
3. CNC(=O)c1cc(-c2cc(-c3cc(NC(=O)N4CC[C@H](C(C)C)C4)ccc3C)ccn2)ccn1
4. CNC(=O)c1cc(-c2cncc(-c3cc(NC(=O)N4CC[C@H](C(F)(F)F)C4)ccc3C)c2)ccn1
5. COC(=O)Nc1cc(-c2cncc(-c3cc(NC(=O)N4CC[C@H](C(F)(F)F)C4)ccc3C)c2)ncn1

Result:
1: ≤ 0.1 µM; 2: ≤ 0.1 µM; 3: 0.1 to 0.5 µM; 4: 0.1 to 0.5 µM; 5: ≤ 0.1 µM
